Value source: PubChem BioAssay (NCI)

Reported growth values for the following compounds.
Test system: RXF 393 renal
experiment description: NCI-60 one-dose screen, 48 h (100 = growth as untreated, 0 = no growth, -100 = all killed)
condition context: 10 µM unless noted
The panel holds about 83,000 compounds, 20% with a hit somewhere; the sample as a whole holds those more often.

| compound | unit info | growth |
| --- | --- | --- |
| CN1C(=O)C(=Cc2cn(Cc3ccccc3)c3ccc(Br)cc23)C(=O)N(C)C1=O | % | 57.6 |
| COc1ccccc1[C@H]1c2[nH]c3ccccc3c2C[C@H]2C(=O)N(CCCCCCC(=O)NO)CC(=O)N12 | % | 65.5 |
| O=C(OC[C@H]1O[C@H](OC(=O)c2cc(O)c(O)c(OC(=O)c3cc(O)c(O)c(O)c3)c2)[C@H](OC(=O)c2cc(O)c(O)c(OC(=O)c3cc(O)c(O)c(O)c3)c2)[C@@H](OC(=O)c2cc(O)c(O)c(OC(=O)c3cc(O)c(O)c(O)c3)c2)[C@@H]1OC(=O)c1cc(O)c(O)c(OC(=O)c2cc(O)c(O)c(O)c2)c1)c1cc(O)c(O)c(OC(=O)c2cc(O)c(O)c(O)c2)c1 | % | -12.7 |
| COc1ccc(-c2nn(-c3cccc(Cl)c3)cc2C2CC(c3ccccc3)=NN2C(C)=O)cc1 (stereo not given) | % | 54.4 |
| COc1cc2c(cc1OC)C1CCN3C(=O)CCC3N1CC2 (stereo not given) | % | 106 |
| Fc1ccc([C@@H]2CCNC[C@H]2COc2ccc3c(c2)OCO3)cc1 | % | 71.7 |
| OCc1nnn(-c2ccccc2)c1CO | % | 104 |
| Cc1c(C)c(N2C(=O)C=CC2=O)c(C)c(C)c1N1C(=O)C=CC1=O | % | 54.7 |
| CCCc1nn(C)c2c(=O)[nH]c(-c3cc(S(=O)(=O)N4CCN(C)CC4)ccc3OCC)nc12 | % | 120 |
| Clc1ccc2c(Nc3ccc4oc(NCCN5CCCC5)nc4c3)ccnc2c1 | % | 81.8 |
| CC(C)C(=O)Cc1cnccn1 | % | 106 |
| COc1ccc2c(c1)/C(=C\c1c[nH]c3ccc(F)cc13)C(=O)N2 | % | 95.4 |
| COc1c(O)cc2oc3cc(O)c(CC=C(C)C)c(O)c3c(=O)c2c1C/C=C(\C)CCC=C(C)C | % | -22.5 |
| O=C1/C(=N/O)CCc2ccccc21 | % | 96.7 |
| CCCCc1nc(Cl)c(CO)n1Cc1ccc(-c2ccccc2-c2nn[nH]n2)cc1 | % | 105 |
| C=C1CC[C@@H]2[C@](C)(COC(C)=O)[C@H](OC(C)=O)CC[C@@]2(C)[C@@H]1CC(Nc1ccc(S(=O)(=O)Nc2cc(C)on2)cc1)C1=CCOC1=O (stereo not given in full) | % | 29.8 |
| Oc1ccccc1C=Nc1ccccc1N=Cc1ccccc1O.[Cu+2] | % | 104 |
| Cn1cc(-c2csc(-c3c[nH]c4ncccc34)n2)c2cc(F)cnc21 | % | 59.8 |
| O=C(CCc1nnc(SCc2ccccc2)s1)c1nc2ccccc2[nH]1 | % | 108 |
| NC(=O)SCC(=O)Nc1ccccc1-c1ccccc1 | % | 138 |
| [O-]/[N+](=C\C=C\c1ccccc1)c1ccccc1 | % | 405 |
| COc1ccc(/C=C/C(=O)Nc2cccnc2Nc2ccc(F)cc2)cc1 | % | 102 |
| ClC1=C(Cl)C(=C2C(Cl)=C(Cl)C(Cl)=C2Cl)C(Cl)=C1Cl | % | 106 |
| O=C(O)c1ccccc1C(=O)OC1CCCC2CCCC21 (stereo not given) | % | 104 |
| Cc1cc(C(C)(C)c2cc(C)c(O)c(CN(C)C)c2)cc(CN(C)C)c1O | % | 61.5 |
| O=C(Nc1cccc(C(F)(F)F)c1)Nc1ccc(OCc2nnc(-c3ccc(Cl)cc3)o2)c(F)c1 | % | 58.2 |
| O=C(NCCc1ccccc1)C1CCC(=O)N1Cc1ccc(Br)cc1 (stereo not given) | % | 106 |
| COc1ccc(Nc2ccnc(NCCCNc3ccnc4cc(Cl)ccc34)n2)cc1 | % | -90 |
| Oc1[nH]c2ccc(Cl)cc2c1/C=c1/ccc2c(c1)N=C(c1ccc(C(F)(F)F)cc1)N=2 | % | 5.23 |
| O=C1c2nsnc2C(=O)c2c(F)c(F)c(F)c(F)c21 | % | -96.4 |
| COc1cccc(CCC2C(=O)CCCC2=O)c1 | % | 134 |
| Cc1cc(NC(=O)Nc2cccc3ccccc23)no1 | % | 99.6 |
| COC(=O)CCC1=C(CC(=O)OC)C(C)=N/C1=C\c1[nH]c(-c2ccc[nH]2)cc1OC | % | 52.8 |
| CCSc1nnc2n(Cc3ccccc3)c(=O)c3c(C)c(C(N)=O)sc3n12 | % | 103 |
| CC(C)(C)c1ccc(C(O)CCCN2CCC(C(O)(c3ccccc3)c3ccccc3)CC2)cc1 (stereo not given) | % | -97.8 |
| COc1ccc2c(c1)nc(N)c1c3ccccc3cn21 | % | 77.1 |
| COC(=O)c1ccc2c(c1)nc(-c1ccc(O)c(OC)c1)n2-c1cc(C(C)(C)C)[nH]n1 | % | 131 |
| O=C1/C(=C/c2ccc([N+](=O)[O-])o2)Oc2ccc(Cl)cc21 | % | -72.2 |
| O=C(Nc1ccc(Cl)cc1Cl)Nc1ccc(-c2cccnc2)cc1N1CCC(CO)CC1 | % | 49.5 |
| Nc1ccccc1-c1ccc([N+](=O)[O-])cc1 | % | 111 |
